System: Plasmodium berghei
Assay: Luciferase/luciferin-expressing antifolate-resistant parasites were used to infect a culture of HepG2 cells that were pre-incubated with compounds. Infected hepatocytes emit light due to the luciferase reaction. Assay results are presented as the percent inhibition of light emission compared to control. […]
Assay type: functional
Settings: sporozoite, FFLUC_HILL_SLOPE 0.93, FFLUC_R_SQUARED 0.122, PBLUC_HILL_SLOPE 17.9, PBLUC_R_SQUARED 0.245, read-out: LUCIFERASE INFECTION ASSAY - IC50
measuredQuantity: IC50 (µM)
Quick note: give the figure in µM, leave out the unit.

Lookup: Request - read-out IC50 | tested on Plasmodium berghei | molecule Cc1ccc(-n2nc(-c3ccc(OC(F)(F)F)cc3)cc2NC(=O)Nc2ccc(OC(F)(F)F)cc2)cc1C
Found: 5.99

* * *

Test system: Plasmodium berghei
Test: Luciferase/luciferin-expressing antifolate-resistant parasites were used to infect a culture of HepG2 cells that were pre-incubated with compounds. Infected hepatocytes emit light due to the luciferase reaction. Assay results are presented as the percent inhibition of light emission compared to control. […]
Type: functional
Details: sporozoite, HEPG2TOX_HILL_SLOPE 6.82, HEPG2TOX_R_SQUARED 0.403, PBLUC_HILL_SLOPE 1.36, PBLUC_R_SQUARED 0.622, read-out: LUCIFERASE INFECTION ASSAY - IC50
measuredQuantity: IC50 (µM)
Quick note: give the figure in µM, leave out the unit.

Lookup: Fill in the recorded IC50 for this compound, with Plasmodium berghei as test system: CCOC(=O)CN(c1cc(OC(C)C)c(Cl)cc1Cl)S(=O)(=O)c1ccc(Cl)cc1
Found: 3.13

* * *

System: Plasmodium berghei
Assay: Luciferase/luciferin-expressing antifolate-resistant parasites were used to infect a culture of HepG2 cells that were pre-incubated with compounds. Infected hepatocytes emit light due to the luciferase reaction. Assay results are presented as the percent inhibition of light emission compared to control. […]
Assay type: functional
Conditions: sporozoite, HEPG2TOX_HILL_SLOPE 2.58, HEPG2TOX_R_SQUARED 0.695, PBLUC_HILL_SLOPE 1.17, PBLUC_R_SQUARED 0.361, read-out: LUCIFERASE INFECTION ASSAY - IC50
measuredQuantity: IC50 (µM)
Only the number, expressed in µM, is required.

Lookup: What does the record list as IC50 for C=CCN(c1ccccc1OC)S(=O)(=O)c1ccc(Cl)c(C(=O)Nc2nc3ccccc3[nH]2)c1 ?
Found: 2.23

* * *

Test system: Plasmodium berghei
Assay: Luciferase/luciferin-expressing antifolate-resistant parasites were used to infect a culture of HepG2 cells that were pre-incubated with compounds. Infected hepatocytes emit light due to the luciferase reaction. Assay results are presented as the percent inhibition of light emission compared to control. […]
Format: functional
Details: sporozoite, PBLUC_HILL_SLOPE 4.26, PBLUC_R_SQUARED 0.126, read-out: LUCIFERASE INFECTION ASSAY - IC50
measuredQuantity: IC50

Lookup: Item: COc1ccc(/C=C2\CCCC3C2=NN(C(=O)Cn2cc(C(F)(F)F)ccc2=O)C3c2ccc(OC)cc2)cc1 (stereo unspecified) Test system: Plasmodium berghei Read-out: IC50 Value: ?
Found: 4.84 µM

* * *

Tested on: Plasmodium berghei
Assay: Luciferase/luciferin-expressing antifolate-resistant parasites were used to infect a culture of HepG2 cells that were pre-incubated with compounds. Infected hepatocytes emit light due to the luciferase reaction. Assay results are presented as the percent inhibition of light emission compared to control. […]
Format: functional
Conditions: sporozoite, HEPG2TOX_HILL_SLOPE 7.2, HEPG2TOX_R_SQUARED 0.832, read-out: LUCIFERASE INFECTION ASSAY - IC50
measuredQuantity: IC50

Lookup: Please give the measured IC50 for this molecule: CN(C)c1ccccc1-c1cn2c(-c3ccc4ncccc4c3)cnc2cn1
Found: > 9.03 µM

* * *

System: Plasmodium berghei
Experiment: Luciferase/luciferin-expressing antifolate-resistant parasites were used to infect a culture of HepG2 cells that were pre-incubated with compounds. Infected hepatocytes emit light due to the luciferase reaction. Assay results are presented as the percent inhibition of light emission compared to control. […]
Assay type: functional
Details: sporozoite, PBLUC_HILL_SLOPE 2.39, PBLUC_R_SQUARED 0.524, read-out: LUCIFERASE INFECTION ASSAY - IC50
measuredQuantity: IC50 (µM)
The reply should be a number in µM, with the unit left off.

Lookup: I'm curious: which IC50 was measured for C/C(=N\n1c(-c2ccc(OC(F)F)cc2)cs/c1=N\CCc1ccccc1)c1ccc2c(c1)OCO2 tested on Plasmodium berghei?
Found: 9.18

* * *

Tested on: Plasmodium berghei
Assay: Luciferase/luciferin-expressing antifolate-resistant parasites were used to infect a culture of HepG2 cells that were pre-incubated with compounds. Infected hepatocytes emit light due to the luciferase reaction. Assay results are presented as the percent inhibition of light emission compared to control. […]
Type: functional
Details: sporozoite, HEPG2TOX_HILL_SLOPE 2.07, 4.99, HEPG2TOX_R_SQUARED 0.833, 0.121, PBLUC_HILL_SLOPE 3.67, 1.56, PBLUC_R_SQUARED 0.0908, 0.540, read-out: LUCIFERASE INFECTION ASSAY - IC50
measuredQuantity: pIC50
By convention, pIC50 is the negative base-10 log of a molar concentration.

Lookup: Provide the documented pIC50 with Plasmodium berghei as the system for CCOC(=O)c1sc(N)c(C#N)c1CSc1nnc(-c2ccc(OC)c(OC)c2)o1
Found: 5.39

* * *

Consider the following molecules and their measured IC50 readings.
Tested on: Plasmodium berghei
Assay: Luciferase/luciferin-expressing antifolate-resistant parasites were used to infect a culture of HepG2 cells that were pre-incubated with compounds. Infected hepatocytes emit light due to the luciferase reaction. Assay results are presented as the percent inhibition of light emission compared to control. […]
Format: functional
Settings: sporozoite, read-out: LUCIFERASE INFECTION ASSAY - IC50

• CSc1sc(C(=O)Nc2ccc(Cl)cc2)c2c1S(=O)(=O)N(C)c1ccccc1-2 = > 7.32 µM
• N=C(N)N/N=C/c1ccc(N(c2ccccc2)c2ccccc2)cc1 = 8.03 µM
• Cc1ccc(C(C)(C)CC(C)NCc2ccc(Cl)cc2)o1 (configuration not stated) = > 10.8 µM

Lookup: Look up IC50 for this molecule: O=C(NNC(=O)c1cc(F)c(F)c(F)c1F)c1ccc(COc2cccc3cccnc23)cc1
Found: > 10 µM

Lookup: Now consider O=C(CC12CC3CC(CC(C3)C1)C2)NCC(=O)Nc1ccc2[nH]c(=O)[nH]c2c1 and answer again.
Found: > 10 µM

Lookup: Another molecule to look at: COc1ccc(-c2cnc3ccc(NCc4ccc5c(c4)OCO5)nn23)cc1
Found: 0.746 µM

Lookup: Here is the next molecule: CC(C(=O)Nc1cccc(S(=O)(=O)N2CCOCC2)c1)N(C)Cc1cccc(Cl)c1Cl (configuration not stated)
Found: > 10 µM

Lookup: One more molecule: CC(C)CNC(=O)CN1CCN(c2nc(-c3cccs3)nc3sc4c(c23)CCC4)CC1
Found: 3.4 µM

* * *

System: Plasmodium berghei
Assay: Luciferase/luciferin-expressing antifolate-resistant parasites were used to infect a culture of HepG2 cells that were pre-incubated with compounds. Infected hepatocytes emit light due to the luciferase reaction. Assay results are presented as the percent inhibition of light emission compared to control. […]
Format: functional
Settings: sporozoite, FFLUC_HILL_SLOPE 1.9, FFLUC_R_SQUARED 0.649, HEPG2TOX_HILL_SLOPE 2.33, HEPG2TOX_R_SQUARED 0.905, PBLUC_HILL_SLOPE 3.58, PBLUC_R_SQUARED 0.165, read-out: LUCIFERASE INFECTION ASSAY - IC50
measuredQuantity: IC50 (µM)
Answer format: numeric, µM implied, no suffix.

Lookup: Which IC50 is reported for this compound? N#Cc1c(Cl)cccc1N1CCOCC1
Found: 14.1

* * *

Test system: Plasmodium berghei
Experiment: Luciferase/luciferin-expressing antifolate-resistant parasites were used to infect a culture of HepG2 cells that were pre-incubated with compounds. Infected hepatocytes emit light due to the luciferase reaction. Assay results are presented as the percent inhibition of light emission compared to control. […]
Format: functional
Details: sporozoite, HEPG2TOX_HILL_SLOPE 1.28, HEPG2TOX_R_SQUARED 0.99, PBLUC_HILL_SLOPE 11.8, PBLUC_R_SQUARED 0.596, read-out: LUCIFERASE INFECTION ASSAY - IC50
measuredQuantity: IC50 (µM)
Report the value in µM with no unit label.

Lookup: Consider the compound shown here: CC(=O)O/N=C1/CCn2c1c(C)c1ccccc12 What is its recorded IC50?
Found: 4.77

* * *

Tested on: Plasmodium berghei
Experiment: Luciferase/luciferin-expressing antifolate-resistant parasites were used to infect a culture of HepG2 cells that were pre-incubated with compounds. Infected hepatocytes emit light due to the luciferase reaction. Assay results are presented as the percent inhibition of light emission compared to control. […]
Type: functional
Details: sporozoite, PBLUC_HILL_SLOPE 3.56, PBLUC_R_SQUARED 0.13, read-out: LUCIFERASE INFECTION ASSAY - IC50
measuredQuantity: IC50 (µM)
Give the value in µM but do not write µM after it.

Lookup: Give its IC50 value. Item: COc1ccccc1CNc1ncnc2scc(-c3ccccc3)c12
Found: 5.66

Recorded values, source ChEMBL document CHEMBL4483862.
